Test system: […]
Assay: Foliar fungal disease test on plants (Example 29), […] on vines
Assay type: in vivo
Details: 100 ppm a.i. foliar spray plus root drench approx. 40 ppm ai./dry soil, mostly protectant, applied 1-2 days before inoculation
Disease control […] (VINES) values, listed per item
The response must contain the number and no unit.

C#CCNC(=O)C(C#N)=NOC    4
CON=C(C#N)C(=O)NCC#N    4
CCON=C(C#N)C(=O)NCC#N    4
C#CCN(CC#C)C(=O)C(C#N)=NOC    4
CON=C(C#N)C(=O)NC(C)C#N (stereo not drawn)    4
CON=C(C#N)C(=O)NC(C#N)c1ccco1 (stereo not drawn)    4
CON=C(C#N)C(=O)NCC(=O)OC    4
CON=C(C#N)C(=O)NCC(I)=CI    4
CON=C(C#N)C(=O)Nc1nccs1    4

Attention now turns to another entry.
Query :: Which Disease control […] (VINES) value belongs to `CON=C(C#N)C(=O)NCC(N)=S` ?
Result :: 4
